Source listed as paper PMC10232890.

# Stability (%) listing for each entry below
# tested-system: HLA-A*0301 (Homo sapiens)
# Assay type: binding
# experimental-setup: NeoScreen: peptide 1 µM, HLA I 2-10 nM, 24 h incubation, urea 0, 2, 4 and 6 M, ELISA with w6/32; relative to reference peptide […] (100%)
Unit % implied. Number only.

* HVSGTNGTK | 0
* SSTASALGK | 2
* SVYAWNRKR | 7
* QIYKTPPIK | 38
* GVYYHKNNK | 89

Give me measured Stability (%), please, for this sequence: TLADAGFIK 5

Give me measured Stability (%), please, for this sequence: MTSCCSCLK 83

Give me measured Stability (%), please, for this sequence: QIAPGQTGK 6

Give me measured Stability (%), please, for this sequence: GIYQTSNFR 80

Give me measured Stability (%), please, for this sequence: KSTNLVKNK 73

Give me measured Stability (%), please, for this sequence: KRFDNPVLP 83

Give me measured Stability (%), please, for this sequence: TLKSFTVEK 91
